Reported IC50 values for the following molecules.
Target: human FGFR1 (Homo sapiens, UniProt P11362)
Construct: purchased Invitrogen PV3146
Sequence (P11362 22-822): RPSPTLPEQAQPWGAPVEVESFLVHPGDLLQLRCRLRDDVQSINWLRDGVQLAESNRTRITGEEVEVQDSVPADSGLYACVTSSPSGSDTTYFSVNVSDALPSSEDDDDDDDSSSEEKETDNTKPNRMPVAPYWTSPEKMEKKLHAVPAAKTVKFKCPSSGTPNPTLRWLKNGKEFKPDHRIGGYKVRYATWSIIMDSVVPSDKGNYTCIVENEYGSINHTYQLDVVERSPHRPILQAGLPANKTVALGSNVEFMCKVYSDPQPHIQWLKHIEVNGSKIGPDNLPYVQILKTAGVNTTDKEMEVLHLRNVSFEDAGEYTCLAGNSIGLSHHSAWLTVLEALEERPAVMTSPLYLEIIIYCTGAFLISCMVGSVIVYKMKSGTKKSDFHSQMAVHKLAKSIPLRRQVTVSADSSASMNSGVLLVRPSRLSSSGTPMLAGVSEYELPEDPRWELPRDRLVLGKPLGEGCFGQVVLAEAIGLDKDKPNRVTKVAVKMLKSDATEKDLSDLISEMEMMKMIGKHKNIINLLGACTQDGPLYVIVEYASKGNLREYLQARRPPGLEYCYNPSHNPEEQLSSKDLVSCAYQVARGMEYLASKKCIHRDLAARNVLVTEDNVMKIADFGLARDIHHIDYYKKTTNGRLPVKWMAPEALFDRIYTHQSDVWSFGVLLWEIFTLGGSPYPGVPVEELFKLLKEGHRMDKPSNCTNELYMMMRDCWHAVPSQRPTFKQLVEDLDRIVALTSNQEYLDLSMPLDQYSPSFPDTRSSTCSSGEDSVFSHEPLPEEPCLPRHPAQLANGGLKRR
Assay: 33P isotope-labeled kinase activity assay (Reaction Biology Corp), FGFR1
Format: biochemical
Conditions: 33P-ATP kinase assay, ATP 5 μM, kinase 1.75 nM, substrate pEY + Mn, 120 minutes at room temperature
# output: bare number, implied unit nM

Consider the reported IC50 for these molecules:
# get_value(readout= IC50, system= human FGFR1 (Homo sapiens, UniProt P11362)) for C=CC(=O)N1CCC(c2cc(C#Cc3c(F)c(OC)cc(OC)c3F)c3c(N)ncnn23)C1 (single isomer, unassigned) [Embodiment 3] 0.7

# get_value(readout= IC50, system= human FGFR1 (Homo sapiens, UniProt P11362)) for C=CC(=O)N1CCC(c2cc(C#Cc3c(Cl)c(OC)cc(OC)c3Cl)c3c(N)ncnn23)C1 (single isomer, unassigned) [Embodiment 6] 0.3

# get_value(readout= IC50, system= human FGFR1 (Homo sapiens, UniProt P11362)) for C=CC(=O)N1CCC(c2cc(C#Cc3c(F)c(OC)cc(OC)c3F)c3c(N)ncnn23)C1 (single isomer, unassigned) [Embodiment 4] 0.07

Further cases:
# get_value(readout= IC50, system= human FGFR1 (Homo sapiens, UniProt P11362)) for C=CC(=O)N1CCC(c2cc(C#Cc3cc(OC)cc(OC)c3)c3c(N)ncnn23)C1 (single isomer, unassigned) 18.3

# get_value(readout= IC50, system= human FGFR1 (Homo sapiens, UniProt P11362)) for C=CC(=O)N1CCC(c2cc(C#Cc3c(Cl)c(OC)cc(OC)c3Cl)c3c(N)ncnn23)C1 (single isomer, unassigned) [Embodiment 5] 21.8

---

Biological target: human FGFR4 (Homo sapiens)
Construct: purchased Invitrogen P3054
Assay: 33P isotope-labeled kinase activity assay (Reaction Biology Corp), FGFR4
Type: biochemical
Conditions: 33P-ATP kinase assay, ATP 100 μM, kinase 2.5 nM, substrate pEY + Mn, 120 minutes at room temperature
METRIC_NAME: IC50 (nM)
# output: bare number, implied unit nM

Consider the reported IC50 for these compounds:
Bench note: what IC50 did C=CC(=O)N1CCC(c2cc(C#Cc3c(Cl)c(OC)cc(OC)c3Cl)c3c(N)ncnn23)C1 (single isomer, unassigned) [Embodiment 5] show? 450

Bench note: what IC50 did C=CC(=O)N1CCC(c2cc(C#Cc3c(Cl)c(OC)cc(OC)c3Cl)c3c(N)ncnn23)C1 (single isomer, unassigned) [Embodiment 6] show? 4.6

Bench note: what IC50 did C=CC(=O)N1CCC(c2cc(C#Cc3cc(OC)cc(OC)c3)c3c(N)ncnn23)C1 (single isomer, unassigned) show? 125

Bench note: what IC50 did C=CC(=O)N1CCC(c2cc(C#Cc3c(F)c(OC)cc(OC)c3F)c3c(N)ncnn23)C1 (single isomer, unassigned) [Embodiment 3] show? 6.6

Please turn your attention to the following entry.
Bench note: what IC50 did C=CC(=O)N1CCC(c2cc(C#Cc3c(F)c(OC)cc(OC)c3F)c3c(N)ncnn23)C1 (single isomer, unassigned) [Embodiment 4] show? 0.08

---

Target: human FGFR4 (Homo sapiens, UniProt P22455)
Construct: purchased Invitrogen P3054
Sequence (P22455 22-802): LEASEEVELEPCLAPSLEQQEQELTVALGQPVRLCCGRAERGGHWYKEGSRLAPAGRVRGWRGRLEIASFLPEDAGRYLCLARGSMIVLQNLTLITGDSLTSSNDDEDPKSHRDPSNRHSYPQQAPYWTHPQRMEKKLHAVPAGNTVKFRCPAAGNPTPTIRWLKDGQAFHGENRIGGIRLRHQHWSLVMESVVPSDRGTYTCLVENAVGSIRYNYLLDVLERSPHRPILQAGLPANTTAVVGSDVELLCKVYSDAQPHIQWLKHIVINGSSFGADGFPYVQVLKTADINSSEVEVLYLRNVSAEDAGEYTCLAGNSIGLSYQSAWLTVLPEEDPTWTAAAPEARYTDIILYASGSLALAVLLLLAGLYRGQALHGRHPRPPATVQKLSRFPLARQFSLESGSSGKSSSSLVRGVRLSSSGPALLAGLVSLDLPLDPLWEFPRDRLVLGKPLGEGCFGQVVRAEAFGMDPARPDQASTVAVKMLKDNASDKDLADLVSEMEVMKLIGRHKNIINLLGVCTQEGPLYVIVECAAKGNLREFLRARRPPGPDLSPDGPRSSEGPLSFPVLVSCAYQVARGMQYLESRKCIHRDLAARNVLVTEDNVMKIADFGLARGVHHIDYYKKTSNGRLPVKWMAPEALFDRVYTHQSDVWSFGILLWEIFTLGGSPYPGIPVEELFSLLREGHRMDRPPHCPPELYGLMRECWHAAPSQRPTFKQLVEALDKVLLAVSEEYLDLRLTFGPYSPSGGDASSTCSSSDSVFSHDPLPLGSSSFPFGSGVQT
Assay: 33P isotope-labeled kinase activity assay (Reaction Biology Corp), FGFR4
Assay type: biochemical
Conditions: ratio of FGFR4 IC50 to FGFR1 IC50
Reported Inhibition activity difference (IC50 ratio) FGFR4/FGFR1 values for the following molecules.
// print number alone

# get_value(readout= Inhibition activity difference (IC50 ratio) FGFR4/FGFR1, system= human FGFR4 (Homo sapiens, UniProt P22455)) for C=CC(=O)N1CCC(c2cc(C#Cc3cc(OC)cc(OC)c3)c3c(N)ncnn23)C1 (single isomer, unassigned) 7

# get_value(readout= Inhibition activity difference (IC50 ratio) FGFR4/FGFR1, system= human FGFR4 (Homo sapiens, UniProt P22455)) for C=CC(=O)N1CCC(c2cc(C#Cc3c(Cl)c(OC)cc(OC)c3Cl)c3c(N)ncnn23)C1 (single isomer, unassigned) [Embodiment 5] 21

# get_value(readout= Inhibition activity difference (IC50 ratio) FGFR4/FGFR1, system= human FGFR4 (Homo sapiens, UniProt P22455)) for C=CC(=O)N1CCC(c2cc(C#Cc3c(Cl)c(OC)cc(OC)c3Cl)c3c(N)ncnn23)C1 (single isomer, unassigned) [Embodiment 6] 15

# get_value(readout= Inhibition activity difference (IC50 ratio) FGFR4/FGFR1, system= human FGFR4 (Homo sapiens, UniProt P22455)) for C=CC(=O)N1CCC(c2cc(C#Cc3c(F)c(OC)cc(OC)c3F)c3c(N)ncnn23)C1 (single isomer, unassigned) [Embodiment 4] 1

Further cases:
# get_value(readout= Inhibition activity difference (IC50 ratio) FGFR4/FGFR1, system= human FGFR4 (Homo sapiens, UniProt P22455)) for C=CC(=O)N1CCC(c2cc(C#Cc3c(F)c(OC)cc(OC)c3F)c3c(N)ncnn23)C1 (single isomer, unassigned) [Embodiment 3] 9
